Data provenance is the RNAGym collection of RNA variant scans (doi:10.1038/nmeth.2970).

B1: NELF-E aptamer (parent)
chain: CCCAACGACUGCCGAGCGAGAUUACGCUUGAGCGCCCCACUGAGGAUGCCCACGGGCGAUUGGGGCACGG

- Variants of: B1
- test method notes: HiTS-RAP
- measurement conditions: with NELF-E (Drosophila)
pKd: −log10 of the molar value.
# cutoff 8 applies to pKd; >= gives Met, < gives Not met

Worked set:
U29A A31G :: Met
C13G U61C :: Not met
U41G :: Met
A8U U10G :: Met
C6U U41C :: Not met

Query string: State whether the measured pKd reaches 8, counting equality as reaching it, for A8U A67G
Result string: Met

Query string: State whether the measured pKd reaches 8, counting equality as reaching it, for C6G G34U
Result string: Met

Query string: State whether the measured pKd reaches 8, counting equality as reaching it, for C6G C25G
Result string: Met

Query string: State whether the measured pKd reaches 8, counting equality as reaching it, for C13U A39U
Result string: Not met
